ASSAY_TEXT: NCI Yeast Anticancer Drug Screen. Data for the bub3 strain (AID 167)
RUN_CONDITIONS: S. cerevisiae bub3 mutant strain, at 11.0 µM, hits give high values
This is part of a sample that, as a whole, favours compounds with a hit. Of some 79,000 tested, about 15% had one in any assay.
The entries below are paired with their reported growth inhibition.
Use % as the unit, but write only the number.

Answered cases to consult:
MOLECULE | NUMERIC_READOUT
COc1ccc2nc(CCc3ccccc3)ccc2c1 | 12
COc1ccc(C(C)c2cc3c(cc2OC(C)O)OCO3)cc1 (stereo not drawn) | 20

Now, please, on to the next molecule.
INPUT: Give the measured growth inhibition of CCCCCCCCCCCCCCCCCCN(C)C(COC)COP(=O)([O-])OCC[N+](C)(C)C (stereo not drawn) .
OUTPUT: 98
